# target.or.test.system: human PD-L1/His fusion protein (human, UniProt Q9NZQ7 19-239)
# Sequence (Q9NZQ7 19-239 limits assumed): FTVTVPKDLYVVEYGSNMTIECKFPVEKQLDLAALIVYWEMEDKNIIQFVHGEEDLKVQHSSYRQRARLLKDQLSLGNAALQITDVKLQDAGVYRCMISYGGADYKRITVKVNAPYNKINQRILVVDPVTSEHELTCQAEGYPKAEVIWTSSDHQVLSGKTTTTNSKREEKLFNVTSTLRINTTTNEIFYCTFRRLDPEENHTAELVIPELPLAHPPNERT
# assay.method.text: BLI off-rate; test group 4

binder	Off-Rate Ratio to that of EM0005-87c
HuEM0005-87-20 (antibody, human IgG1, V domains shown) VH: EVQLVQSGAEVKKPGASVKVSCKASGYSFTDYYINWVKQAPGQGLEWIGETIPNTGGTTYNQKFKAKATLTRDKSTSTAYMELKSLRSEDTAVYYCARYQSGSPFAYWGQGTTVTVSS VL: EIVMTQSPATLSVSPGERATLSCKASQNVGTAVAWYQQKPGQAPRLLIYSASNRYTGVPDRFTGSGSGTEFTLTISSLQSEDFAVYYCQQHYSTPYTFGGGTKLEIK	89%
HuEM0005-87-22 (antibody, human IgG1, V domains shown) VH: EVQLVQSGAEVKKPGASVKVSCKASGYTFTDYYINWVRQAPGQGLEWMGETIPNTGGTTYNQKFKARVTLTVDTSTSTVYMELSSLRSEDTAVYYCARYQSGSPFAYWGQGTTVTVSS VL: DIVMTQSPATLSVSPGERATLSCKASQNVGTAVAWYQQKPGQAPRLLIYSASNRYTGVPDRFTGSGSGTDFTLTISSLQSEDFAVYYCQQHYSTPYTFGGGTKLEIK	82%
HuEM0005-87-19 (antibody, human IgG1, V domains shown) VH: EVQLVQSGAEVKKPGASVKVSCKASGYSFTDYYINWVRQAPGQGLEWIGETIPNTGGTTYNQKFKAKATLTVDKSTSTAYMELSSLRSEDTAVYYCARYQSGSPFAYWGQGTTVTVSS VL: EIVMTQSPATLSVSPGERATLSCKASQNVGTAVAWYQQKPGQAPRLLIYSASNRYTGVPDRFTGSGSGTEFTLTISSLQSEDFAVYYCQQHYSTPYTFGGGTKLEIK	87%
